Measured values drawn from PubChem BioAssay (NCI) for this set.

In this section we review reported growth inhibition values for a set of compounds.
- Assay: NCI Yeast Anticancer Drug Screen. Data for the rad14 strain (AID 159);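 further: 0% = growth of vehicle-treated control cultures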
- Reported conditions: S. cerevisiae rad14 strain growth inhibition; at 3.7 µM; active compounds read high
The panel holds about 79,000 compounds, 15% with a hit somewhere; the sample as a whole holds those more often.
I only need the number, in %, no unit after it.

Consider the reported growth inhibition for these compounds:
Q: Tell me measured growth inhibition for CC(=O)N1C=Cc2c(c(C)c3c([nH]c4ccccc43)c2C)C1 please.
Ans: 32

Q: Tell me measured growth inhibition for S=C1N(c2ccc(Cl)cc2)C2=C(N=Nc3ccccc3)C(=Nc3ccccc3S2)N1c1ccccn1 please.
Ans: 19

Q: Tell me measured growth inhibition for Cc1c(Cl)c(C)c(Cl)c(O)c1Cl please.
Ans: 6

Q: Tell me measured growth inhibition for CCCCCCCCCC(=O)N(CCC)CCC please.
Ans: -6

Q: Tell me measured growth inhibition for C=CCNC1=C2C[C@@H](C)C[C@H](OC)[C@H](O)[C@@H](C)/C=C(\C)[C@H](OC(N)=O)[C@@H](OC)/C=C\C=C(/C)C(=O)NC(=CC1=O)C2=O please.
Ans: -42

***
Q: Tell me measured growth inhibition for O=C1Nc2ccc(Br)cc2C1=Nc1cccnc1 please.
Ans: -61

Q: Tell me measured growth inhibition for Brc1ccc(B2Nc3ccccc3N2)cc1 please.
Ans: 24

Q: Tell me measured growth inhibition for O=C1C=CC(=Nc2cccc3c2-c2ccccc2C3=O)O1 please.
Ans: 18

Q: Tell me measured growth inhibition for CNC(=O)OCc1c(COC(=O)NC)c(C)n(-c2ccc(Br)cc2)c1C please.
Ans: -16
